# measuredOn: human recombinant HDAC6 (Homo sapiens, UniProt Q9UBN7)
# Construct: purchased Calibiochem Co. (so in the source) 382180
# Sequence (Q9UBN7 whole entry): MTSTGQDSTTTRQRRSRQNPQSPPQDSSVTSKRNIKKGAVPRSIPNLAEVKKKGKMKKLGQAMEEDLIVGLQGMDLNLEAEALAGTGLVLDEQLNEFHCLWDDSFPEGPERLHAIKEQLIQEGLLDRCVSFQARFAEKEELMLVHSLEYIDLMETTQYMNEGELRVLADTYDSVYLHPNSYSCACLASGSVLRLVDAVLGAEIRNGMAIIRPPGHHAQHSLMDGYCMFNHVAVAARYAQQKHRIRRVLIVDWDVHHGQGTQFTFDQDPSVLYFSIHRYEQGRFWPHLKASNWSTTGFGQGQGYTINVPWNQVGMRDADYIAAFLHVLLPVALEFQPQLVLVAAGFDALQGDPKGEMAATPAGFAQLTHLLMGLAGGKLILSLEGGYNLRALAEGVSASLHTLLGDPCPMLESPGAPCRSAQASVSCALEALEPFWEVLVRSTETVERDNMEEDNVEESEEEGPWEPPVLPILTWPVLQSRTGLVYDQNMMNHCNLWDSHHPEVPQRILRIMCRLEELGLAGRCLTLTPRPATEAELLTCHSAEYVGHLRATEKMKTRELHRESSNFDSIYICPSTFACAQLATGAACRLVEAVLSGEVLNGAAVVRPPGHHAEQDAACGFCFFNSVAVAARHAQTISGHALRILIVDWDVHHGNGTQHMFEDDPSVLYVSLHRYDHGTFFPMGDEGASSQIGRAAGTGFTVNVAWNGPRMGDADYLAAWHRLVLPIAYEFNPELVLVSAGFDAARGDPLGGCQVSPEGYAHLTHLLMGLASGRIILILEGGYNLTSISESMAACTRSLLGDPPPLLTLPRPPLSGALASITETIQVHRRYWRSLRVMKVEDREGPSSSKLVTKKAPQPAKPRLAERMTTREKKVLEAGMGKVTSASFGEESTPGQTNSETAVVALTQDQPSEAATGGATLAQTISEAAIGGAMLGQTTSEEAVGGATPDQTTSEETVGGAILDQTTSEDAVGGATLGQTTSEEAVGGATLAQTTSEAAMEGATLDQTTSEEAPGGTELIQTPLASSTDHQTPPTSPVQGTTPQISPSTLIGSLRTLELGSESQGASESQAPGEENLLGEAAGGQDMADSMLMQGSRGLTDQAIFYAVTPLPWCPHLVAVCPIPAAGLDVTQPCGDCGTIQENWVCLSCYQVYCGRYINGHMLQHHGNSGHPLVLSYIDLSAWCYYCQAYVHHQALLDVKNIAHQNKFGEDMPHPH
# methodSummary: HDAC enzyme activity test, HDAC6
# Assay type: biochemical
# particulars: Table 12; read-out: Inhibition ability (IC50) HDAC6
What pIC50 was measured for each of the following?
One number for each entry, as −log10 of the molar value.

Field: example entries. Status: answers known.
Per the records, this compound ( CC1(C)CC(=O)c2c(n(CCCCCC(=O)NO)c3ccc(Br)cc23)C1 ) has pIC50 equal to 6.93

Record CC1(C)CC(=O)c2c(n(CCCCCC(=O)NO)c3ccccc23)C1 . Reported pIC50: 7.15

// field: pIC50; key: CC1(C)CC(=O)c2c(n(Cc3ccc(C(=O)NO)cc3)c3cc(F)c(F)cc23)C1 ; value = 6.87

Just so you know, measured pIC50 for CC1(C)CC(=O)c2c(n(CCCCCC(=O)NO)c3c(Br)cccc23)C1 came out at 6.60

Reported pIC50 ( O=C(CCCCCn1c2c(c3ccccc31)C(=O)C(CN1CCOCC1)CC2)NO (stereo not shown) ) = 8.12

I would be grateful if you could provide pIC50 for each of the following entries.
1. Cc1nccn1CC1CCc2c(c3ccccc3n2Cc2ccc(C(=O)NO)cc2)C1=O (stereo not shown)
2. Cc1cn(Cc2ccc(C(=O)NO)cc2)c2c1C(=O)CC(C)(C)C2

1. 7.95
2. 8.07

Please give pIC50, item by item, for the list that follows.
1. O=C(NO)c1ccc(Cn2c3c(c4ccccc42)C(=O)N(CCN2CCOCC2)CC3)cc1
2. O=C(NO)c1ccc(Cn2c3ccc(F)cc3c3c(=O)[nH]ccc32)cc1
3. O=C(NO)c1ccc(Cn2c3c(c4cc(F)ccc42)C(=O)N(CCN2CCN(CCO)CC2)CC3)cc1

[7.67, 8.60, 7.98]

Parameter requested: pIC50. Apply to each item below.
1. O=C(NO)c1ccc(Cn2c3c(c4cc(F)ccc42)C(=O)NCC3)cc1
2. CC1(C)CC(=O)c2c(n(CCCCCC(=O)NO)c3cc(F)ccc23)C1
3. CN1CCN(CC2CCc3c(c4ccccc4n3Cc3ccc(C(=O)NO)cc3)C2=O)CC1 (stereo not shown)
4. O=C(NO)c1ccc(Cn2c3c(c4ccccc42)C(=O)CCC3)cc1
5. CC1(C)CC(=O)c2c(n(CCCCCC(=O)NO)c3ccc(F)cc23)C1
6. CN(C)CC1C(=O)c2c(n(Cc3ccc(C(=O)NO)cc3)c3ccccc23)CC1(C)C (stereo not shown)

8.51
6.77
7.91
7.79
7.25
8.18

For each of the compounds below, state pIC50.
1. O=C(NO)c1ccc(Cn2c3c(c4ccccc42)C(=O)C(CN2CCC(F)(F)C2)CC3)cc1 (stereo not shown)
2. Cc1c2c(n(CCCCCC(=O)NO)c1C)CCCC2=O
3. CC1(C)CC(=O)c2c(n(Cc3ccc(C(=O)NO)cc3)c3cccc(Br)c23)C1
4. Cc1c2c(n(Cc3ccc(C(=O)NO)cc3)c1C)CC(C)(C)CC2=O
5. CC1(C)CC(=O)c2c(n(Cc3ccc(C(=O)NO)cc3)c3cc(Br)ccc23)C1
6. CC1(C)CC(=O)c2c(n(CCCCCCC(=O)NO)c3ccccc23)C1

1: 8.18; 2: 7.43; 3: 7.19; 4: 7.97; 5: 7.23; 6: 8.13
